Assay: in vivo
Conditions: male, Wistar, rat, plasma, po, 60 mg/kg

compound | Cmax / ng/mL
C[C@H]1[C@H](C)CC[C@]2(C(=O)O)CC[C@]3(C)C(=CC[C@@H]4[C@@]5(C)CC[C@H](O)C(C)(C)[C@@H]5CC[C@]43C)[C@H]12 [Control, ursolic acid] | 201

###

Experiment: Comparative oral bioavailability of vitamin C, crossover study in healthy volunteers
Settings: human, in vivo
test_readout: MRT (h)

smi | unit_abbrev | recorded_measurement
O=C1O[C@H]([C@@H](O)CO)C(O)=C1O | h | 9.3

###

Assay: Comparative oral bioavailability of vitamin C, crossover study in healthy volunteers
Conditions: human, in vivo

smi | unit_abbrev | Tmax
O=C1O[C@H]([C@@H](O)CO)C(O)=C1O | h | 2.67
